- measurement.notes: in vivo
- test.context: Sprague-Dawley, rat, po, 1 mg/kg
readout.label: Tmax (min)

P. COc1cc2nc(N3CCN(C(=O)C4COc5ccccc5O4)CC3)nc(N)c2cc1OC (centres unmarked)
Q. COc1cc2nc(N3CCN(C(=O)c4ccco4)CC3)nc(N)c2cc1OC
I'm curious whether P or Q has the smaller Tmax number. Which is it? Returns: label corresponding to the selected item. Q
(Q: 22.8 min, P: 45 min)
